Experiment: Cytotoxicity, WST-1 cell viability
Type: cell-based, murine
Details: mouse, L929 cells (murine fibroblast cell line)
Where a SMILES comes first, the peptide text is derived from it.
QUANTITY MEASURED: viability at 24 h, 2.5 µg/mL
Just the number plus its unit, please.

Consider the compound N=C(N)NCCC[C@H](NC(=O)[C@H](CCCNC(=N)N)NC(=O)[C@H](Cc1c[nH]c2ccccc12)NC(=O)[C@H](Cc1ccc(O)cc1)NC(=O)[C@H](CCCNC(=N)N)NC(=O)[C@H](CCCNC(=N)N)NC(=O)[C@H](Cc1c[nH]c2ccccc12)NC(=O)[C@@H]1CCCN1C(=O)CN)C(N)=O [VESCA3] (H-GPWRRYWRR-NH2) and give its recorded viability at 24 h, 2.5 µg/mL.
104%

---

Assay: Cytotoxicity, WST-1 cell viability
Type: cell-based, murine
Conditions: mouse, L929 cells (murine fibroblast cell line)
Where a SMILES comes first, the peptide text is derived from it.
QUANTITY MEASURED: viability at 24 h, 10 µg/mL (%)
Numbers only, in %.

Consider the molecule N=C(N)NCCC[C@H](NC(=O)[C@H](CCCNC(=N)N)NC(=O)[C@H](Cc1c[nH]c2ccccc12)NC(=O)[C@H](Cc1ccc(O)cc1)NC(=O)[C@H](CCCNC(=N)N)NC(=O)[C@H](CCCNC(=N)N)NC(=O)[C@H](Cc1c[nH]c2ccccc12)NC(=O)[C@@H]1CCCN1C(=O)CN)C(N)=O [VESCA3] (H-GPWRRYWRR-NH2) and give its recorded viability at 24 h, 10 µg/mL.
97.1

---

Assay: Cytotoxicity, WST-1 cell viability
Type: cell-based, murine
Conditions: mouse, L929 cells (murine fibroblast cell line)
Where a SMILES comes first, the peptide text is derived from it.
QUANTITY MEASURED: viability at 24 h, 160 g/mL

Consider the compound N=C(N)NCCC[C@H](NC(=O)[C@H](CCCNC(=N)N)NC(=O)[C@H](Cc1c[nH]c2ccccc12)NC(=O)[C@H](Cc1ccc(O)cc1)NC(=O)[C@H](CCCNC(=N)N)NC(=O)[C@H](CCCNC(=N)N)NC(=O)[C@H](Cc1c[nH]c2ccccc12)NC(=O)[C@@H]1CCCN1C(=O)CN)C(N)=O [VESCA3] (H-GPWRRYWRR-NH2) and give its recorded viability at 24 h, 160 g/mL.
≥ 90%

---

Assay: Cytotoxicity, WST-1 cell viability
Format: cell-based, murine
Conditions: mouse, L929 cells (murine fibroblast cell line)
Where a SMILES comes first, the peptide text is derived from it.
QUANTITY MEASURED: viability at 24 h, 5 µg/mL (%)
Answers are plain numbers, in %.

Consider the compound N=C(N)NCCC[C@H](NC(=O)[C@H](CCCNC(=N)N)NC(=O)[C@H](Cc1c[nH]c2ccccc12)NC(=O)[C@H](Cc1ccc(O)cc1)NC(=O)[C@H](CCCNC(=N)N)NC(=O)[C@H](CCCNC(=N)N)NC(=O)[C@H](Cc1c[nH]c2ccccc12)NC(=O)[C@@H]1CCCN1C(=O)CN)C(N)=O [VESCA3] (H-GPWRRYWRR-NH2) and give its recorded viability at 24 h, 5 µg/mL.
104

---

Assay: Cytotoxicity, WST-1 cell viability
Assay type: cell-based, murine
Details: mouse, L929 cells (murine fibroblast cell line)
Where a SMILES comes first, the peptide text is derived from it.
QUANTITY MEASURED: viability at 24 h, 20 µg/mL (%)
Numbers only, in %.

Consider the compound N=C(N)NCCC[C@H](NC(=O)[C@H](CCCNC(=N)N)NC(=O)[C@H](Cc1c[nH]c2ccccc12)NC(=O)[C@H](Cc1ccc(O)cc1)NC(=O)[C@H](CCCNC(=N)N)NC(=O)[C@H](CCCNC(=N)N)NC(=O)[C@H](Cc1c[nH]c2ccccc12)NC(=O)[C@@H]1CCCN1C(=O)CN)C(N)=O [VESCA3] (H-GPWRRYWRR-NH2) and give its recorded viability at 24 h, 20 µg/mL.
99.7

---

Assay: Cytotoxicity, WST-1 cell viability
Format: cell-based, murine
Conditions: mouse, L929 cells (murine fibroblast cell line)
Where a SMILES comes first, the peptide text is derived from it.
QUANTITY MEASURED: viability at 24 h, 40 µg/mL

Consider the molecule N=C(N)NCCC[C@H](NC(=O)[C@H](CCCNC(=N)N)NC(=O)[C@H](Cc1c[nH]c2ccccc12)NC(=O)[C@H](Cc1ccc(O)cc1)NC(=O)[C@H](CCCNC(=N)N)NC(=O)[C@H](CCCNC(=N)N)NC(=O)[C@H](Cc1c[nH]c2ccccc12)NC(=O)[C@@H]1CCCN1C(=O)CN)C(N)=O [VESCA3] (H-GPWRRYWRR-NH2) and give its recorded viability at 24 h, 40 µg/mL.
91.9%
